tested on: S. aureus Newman; assay: Bliss interaction score (quartile over a dose matrix) (fitness difference); higher = more antagonism (negative = synergy);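 further: first quartile when negative (synergy) and third quartile when positive (antagonism)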
// values below are reported Bliss interaction score
Just the number, please, no unit after it.

[
  {
    "compound": "CO/N=C(\\C(=O)N[C@@H]1C(=O)N2C(C(=O)O)=C(COC(N)=O)CS[C@H]12)c1ccco1 [Cefuroxime] + CN[C@@H]1[C@H](O[C@H]2[C@H](O[C@H]3[C@H](O)[C@@H](O)[C@H](N=C(N)N)[C@@H](O)[C@@H]3N=C(N)N)O[C@@H](C)[C@]2(O)C=O)O[C@@H](CO)[C@H](O)[C@H]1O [Streptomycin]",
    "measurement_target": "S. aureus Newman",
    "Bliss interaction score": 0.335
  }
]

Problem: Entry under review: COc1cccc2c1C(=O)c1c(O)c3c(c(O)c1C2=O)C[C@@](O)(C(=O)CO)C[C@@H]3O[C@H]1C[C@H](N)[C@H](O)[C@H](C)O1 [Doxorubicin] + CO[C@@H]1[C@@H](OC(N)=O)[C@@H](O)[C@H](Oc2ccc3c(O)c(NC(=O)c4ccc(O)c(CC=C(C)C)c4)c(=O)oc3c2C)OC1(C)C [Novobiocin] . Reported Bliss interaction score?
Result: -0.082

====

tested on: B. subtilis 168; experiment: Bliss interaction score (quartile over a dose matrix) (fitness difference); higher = more antagonism (negative = synergy)
// values below are reported Bliss interaction score
Just the number, please, no unit after it.

[
  {
    "compound": "CO/N=C(\\C(=O)N[C@@H]1C(=O)N2C(C(=O)O)=C(COC(C)=O)CS[C@H]12)c1csc(N)n1 [Cefotaxime] + Cc1cc(NS(=O)(=O)c2ccc(N)cc2)no1 [Sulfamethoxazol]",
    "measurement_target": "B. subtilis 168",
    "observed_result": 0.054
  },
  {
    "compound": "N#CC(C#N)=NNc1cccc(Cl)c1 [CCCP] + CO/N=C(\\C(=O)N[C@@H]1C(=O)N2C(C(=O)[O-])=C(C[N+]3(C)CCCC3)CS[C@H]12)c1csc(N)n1 [Cefepime]",
    "measurement_target": "B. subtilis 168",
    "observed_result": 0.0769
  },
  {
    "compound": "CN(C)[C@@H]1C(O)=C(C(N)=O)C(=O)[C@@]2(O)C(O)=C3C(=O)c4c(O)ccc(Cl)c4[C@@](C)(O)[C@H]3C[C@@H]12 [Clortetracycline] + CN[C@@H]1[C@H](O[C@H]2[C@H](O[C@H]3[C@H](O)[C@@H](O)[C@H](N=C(N)N)[C@@H](O)[C@@H]3N=C(N)N)O[C@@H](C)[C@]2(O)C=O)O[C@@H](CO)[C@H](O)[C@H]1O [Streptomycin]",
    "measurement_target": "B. subtilis 168",
    "observed_result": 0.156
  },
  {
    "compound": "O=C(O)c1cn(C2CC2)c2cc(N3CCNCC3)c(F)cc2c1=O [Ciprofloxacin] + COc1c(N2C[C@@H]3CCCN[C@@H]3C2)c(F)cc2c(=O)c(C(=O)O)cn(C3CC3)c12 [Moxifloxacin]",
    "measurement_target": "B. subtilis 168",
    "observed_result": 0.026
  },
  {
    "compound": "C[C@@H]1O[C@@H]1P(=O)(O)O [Fosfomycin] + CO[C@@]12[C@H](COC(N)=O)C3=C(C(=O)C(C)=C(N)C3=O)N1C[C@@H]1N[C@@H]12 [MitomycinC]",
    "measurement_target": "B. subtilis 168",
    "observed_result": -0.116
  },
  {
    "compound": "C[C@@H]1O[C@@H]1P(=O)(O)O [Fosfomycin] + CC1(C)S[C@@H]2[C@H](NC(=O)Cc3ccccc3)C(=O)N2[C@H]1C(=O)O [PenicillinG]",
    "measurement_target": "B. subtilis 168",
    "observed_result": -0.0401
  },
  {
    "compound": "CN(C)[C@@H]1C(O)=C(C(N)=O)C(=O)[C@@]2(O)C(O)=C3C(=O)c4c(O)ccc(Cl)c4[C@@](C)(O)[C@H]3C[C@@H]12 [Clortetracycline] + CCN(CC)CCOC(=O)c1ccc(N)cc1 [Procaine]",
    "measurement_target": "B. subtilis 168",
    "observed_result": 0.0759
  },
  {
    "compound": "CC1(C)S[C@@H]2[C@H](NC(=O)Cc3ccccc3)C(=O)N2[C@H]1C(=O)O [PenicillinG] + CN[C@@H]1[C@H](O)[C@H](NC)[C@H]2O[C@@]3(O)C(=O)C[C@@H](C)O[C@H]3O[C@@H]2[C@H]1O [Spectinomycin]",
    "measurement_target": "B. subtilis 168",
    "observed_result": 0.0272
  },
  {
    "compound": "C[C@@H]1O[C@@H]1P(=O)(O)O [Fosfomycin] + O=C1CN(/N=C/c2ccc([N+](=O)[O-])o2)C(=O)N1 [Nitrofurantoin]",
    "measurement_target": "B. subtilis 168",
    "observed_result": -0.0694
  },
  {
    "compound": "CC(=O)Oc1ccccc1C(=O)O [Acetylsalicylicacid] + CC1=C\\[C@@H](O)CC(=O)Cc2nc(co2)C(=O)N2CCC=C2C(=O)O[C@H](C(C)C)[C@H](C)/C=C/C(=O)NC\\C=C\\1 [Virginiamycin M1]",
    "measurement_target": "B. subtilis 168",
    "observed_result": -0.0602
  }
]

Problem: Entry under review: C[C@@H]1O[C@@H]1P(=O)(O)O [Fosfomycin] + C/C(=C\C(=O)OCCCCCCCCC(=O)O)C[C@@H]1OC[C@H](C[C@@H]2O[C@H]2[C@@H](C)[C@H](C)O)[C@@H](O)[C@H]1O [Pseudomonic acid] . Reported Bliss interaction score?
Result: 0.0483
